Here the recorded CC50 is given for each entry.
protocol.details: in vitro
study.conditions: African green monkey

CC1(C)C(OC2OC(C(=O)O)C(O)C(O)C2OC2OC(C(=O)O)C(O)C(O)C2O)CC[C@@]2(C)C1CC[C@]1(C)C2C(=O)C=C2C3C[C@@](C)(C(=O)O)CC[C@]3(C)CC[C@]21C.N (stereo partly shown) [Glycyrrhizin Monoammonium Salt] = 625 µM
CC1(C)C(OC2OC(C(=O)O)C(O)C(O)C2OC2OC(C(=O)O)C(O)C(O)C2O)CC[C@]2(C)[C@H]3C(=O)C=C4[C@@H]5C[C@@](C)(C(=O)O)CC[C@]5(C)CC[C@@]4(C)[C@]3(C)CC[C@@H]12 (stereo partly shown) = > 20000 µg/mL
COC(=O)[C@@]1(C)CC[C@]2(C)CC[C@]3(C)C(=CC(=O)C4[C@@]5(C)CCC(OC6OC(CO)C(O)C(O)C6OC6OC(CO)C(O)C(O)C6O)C(C)(C)C5CC[C@]43C)C2C1 (stereo partly shown) = 44 µM

GET /value?item= NC(=O)c1[nH]nc([C@@H]2O[C@H](CO)[C@@H](O)[C@H]2O)c1O &field=CC50 returns 52 µg/mL

Entry COC(=O)[C@@]1(C)CC[C@]2(C)CC[C@]3(C)C(=CC(=O)C4[C@@]5(C)CCC(OC6OC(C(=O)NN)C(O)C(O)C6OC6OC(C(=O)NN)C(O)C(O)C6O)C(C)(C)C5CC[C@]43C)C2C1 (stereo partly shown) ; CC50 = 66 µM

CC50 in this record for NC(=O)c1ncn([C@@H]2O[C@H](CO)[C@@H](O)[C@H]2O)n1 : > 1000 µg/mL

The recorded CC50 for entry O=c1cnn([C@@H]2O[C@H](CO)[C@@H](O)[C@H]2O)c(=O)[nH]1 equals 104 µg/mL

Values were extracted from patent US20070099855A1.
